experiment-description: protein stability index of a GFP-peptide fusion (GPS, HEK-293T) (PSI 1-6); higher = more stable;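 also: 24-mer peptide tiles fused after GFP, lentivirally expressed, FACS-sorted into six equal bins by GFP/DsRed ratio, decoded by Illumina sequencing, PSI is the read-weighted mean bin number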
condition-parameters: treatment: MLN4924 1 uM, 8 h; c terminus: a fixed tail appended
Assign Met to entries whose protein stability index meets or exceeds 4; assign Not met to the rest.

These solved cases illustrate the format of a correct answer.
Check if protein stability index >= 4 (inclusive). Item: AAPDCTPSLEAGNPAPAAPCPLGE [MYCL]
Met

Determine whether measured protein stability index meets or exceeds 4 for GHLEIVKYLVEHKADLEVSNRHGH [FEM1C]
Not met

Given the entry KVYPVQEALAVLEPYARLPPHKHV [TRIB3] , answer whether its protein stability index meets or surpasses 4.
Not met

Does EKSLDQLKSISAEEILTLFCGAPP [PHTF1] have a reported protein stability index of at least 4?
Not met

Hi, just wondering whether PPPNRMYPPPPPALPSSAPSGPPP [WASL] shows protein stability index of 4 or higher.
Met

Reported protein stability index at or above 4? IFGDLCGNMANLSLHDHDGSSGAS [DVL3]
Met

Is reported protein stability index greater than or equal to 4 here: YCRLKKCLKVGMRREAVQRGRMPP [NR2F2]
Not met

protein stability index >= 4 for PSRGHAYRDYGHSRRDESYSRGYR [RBMY1A1] ?
Met

More entries:
Is protein stability index for NVDDPTGAHSNAPITAHAEVEVVE [CSNK1G1] at or above 4?
Met

Please tell me: is the sequence QPPRFPVPHNGSSEATLPAQMSTL [PDLIM4] at or over 4 in terms of protein stability index?
Met

Does AEEETLSRELEPELRRRRYEYDHW [ALKBH7] have a reported protein stability index of at least 4?
Met

Please tell me: is the sequence PLTRLGQLKACTNFDDILNVCDDY [KCNG1] at or over 4 in terms of protein stability index?
Not met

Hi team, for PGCGSVPGSGSGPGPGSGPGSGPG [SPAG8] , is the recorded protein stability index at or above 4?
Met

====

experiment-description: protein stability index of a GFP-peptide fusion (GPS, HEK-293T) (PSI 1-6); higher = more stable
condition-parameters: treatment: MLN4924 1 uM, 8 h; c terminus: a fixed tail appended
value-kind: protein stability index

Would you please look over these solved cases?
May I ask what protein stability index has been recorded for SPEIMASVLNGKFANLIKEFVIID [CDC25A] ?
2.23

I am curious: what protein stability index value has been reported for SDVIEYAKQKLDFFIRTSDSFDKF [PCMTD2] ?
2.48

Requested read-out: protein stability index. Entry: GDIQELYDTTLALGHAAAFSDDCD [GLT8D2]
5.23

Item under review: MLLQHQICKEVQAEQEPTRKLFEV [SPAG8] . Reported protein stability index?
2.78

Please turn your attention to the following entry.
# input sequence: KLCTAHMCSTLEHNCAHFCINIPG [MATN2] ; wanted: its protein stability index
2.22

====

experiment-description: protein stability index of a GFP-peptide fusion (GPS, HEK-293T) (PSI 1-6); higher = more stable
condition-parameters: treatment: DMSO; c terminus: a fixed tail appended
Classify as follows. Reported protein stability index greater than or equal to 4: 1.0. Reported protein stability index below: 0.0.

Below are worked cases with known answers.
Hello, I need to know if SIGLRDYAGNLHESGVHGALLALD [PPFIA4] has measured protein stability index not below 4. Thanks!
0.0

Given the entry ERQGNGQQAMSLAILRVIRLVRVF [KCNA3] , answer whether its protein stability index meets or surpasses 4.
0.0

API: above_or_equal(metric=protein stability index, cutoff=4) for item ILGVIGLFTIPLLYRQHQAQIDQY [RTN2]
0.0

Please check the record CTDCGKSFNHNAHLTVHKRIHTGE [ZNF8] and state if its protein stability index is at or above 4.
1.0

---
Has HSGFEDELSEVLENQSSQAELKEA [CHGA] a recorded protein stability index greater than or equal to 4?
1.0

I'd appreciate it if you could say whether DGGALLGVLQYRGAELHLQPLEGG [ADAMTS4] has protein stability index at least equal to 4.
0.0

Textbook exercise: given the entry RYQHGIAVIGNFLYVVGGQSNYDT [KLHL13] , state whether its protein stability index is greater than or equal to 4.
0.0

====

experiment-description: protein stability index of a GFP-peptide fusion (GPS, HEK-293T) (PSI 1-6); higher = more stable
condition-parameters: treatment: MLN4924 1 uM, 8 h; c terminus: a fixed tail appended
value-kind: protein stability index
Form: value (number only, do not type unit).

Data request, read-out protein stability index, for ILLVGYPPFWDEDQHRLYKQIKAG [CAMK2A]
2.24

Others:
May I ask what protein stability index has been recorded for RVEVLTDAGGWVLIDRSGRHFGTI [KCTD13] ?
2.38

Which protein stability index is listed for IEILPNVCYTACATLKGPDSHYGT [BTBD1] ?
2.31

Returns the measured protein stability index for the input sequence. Input: ELIFSARVLDGKEAKAVGLISHVL [AUH]
2.18

What value of protein stability index has been reported for the following sequence? CISKNEWIQFNHPYTEKPRLWHTA [KLHDC2]
2.36

// protein stability index lookup, key: VRERILGADNIDVSHPIIYRGAVY [FEM1B]
2.57

====

experiment-description: protein stability index of a GFP-peptide fusion (GPS, HEK-293T) (PSI 1-6); higher = more stable
condition-parameters: treatment: DMSO; c terminus: a fixed tail appended
Decide using protein stability index: a value greater than or equal to 4 is rule met, a smaller one is rule not met.

A selection of reference data follows.
Could you please find out whether CPECYPDNPANRSLVLPWSFPLEW [TOR1AIP2] has protein stability index that meets 4 or exceeds it?
rule not met

Is the recorded value of protein stability index equal to or greater than 4 for this sequence? GAAVVRPPGHHAEQDAACGFCFFN [HDAC6]
rule not met

protein stability index >= 4 for DTCPEVGFFDVLGNDRRREWAALG [ACBD3] ?
rule not met

# check: protein stability index of CISKNEWIQFNHPYTEKPRLWHTA [KLHDC2] is greater than or equal to 4
rule not met

Hello, I need to know if HGSGGSGYPAAPPAVPFAPHFLQG [TBX6] has measured protein stability index not below 4. Thanks!
rule not met

Record RNHMENGGDHRYVNNYTNSFGGEW [TRIM29] ; criterion: protein stability index no lower than 4. Met?
rule not met

More entries:
Is protein stability index at least 4? Consider GSRHPTLVLPLVPELLSTHPFFDT [INTS4]
rule not met

Threshold query (protein stability index >= 4) on KLQVSQQEDITKSLLVTELGSSRT [IMPA1]
rule met

Quick check: does ADIFRIYAPEAPYTSPDKLKDIFM [PDS5B] have protein stability index greater than or equal to 4?
rule not met

Decide: is the reported value of protein stability index for LEGEEENELTLNEKNFFPEYNYDW [CHGB] equal to or greater than 4?
rule met

Assess whether reported protein stability index for PQEFQKTVSTMYYLWMCSTLALLL [SCAMP3] sits at 4 or higher.
rule not met

Hello, I need to know if RYLFEEDNLLRSTQKLSHSTKPSG [MATN2] has measured protein stability index not below 4. Thanks!
rule not met

Textbook exercise: given the entry IPGLPGLRGLPGERGTPGLPGPKG [SCARA5] , state whether its protein stability index is greater than or equal to 4.
rule met

# check: protein stability index of EKSLDQLKSISAEEILTLFCGAPP [PHTF1] is greater than or equal to 4
rule not met

# bool: protein stability index of KPYNCLQCLDKTNESALVKEKELS [MTUS2] >= 4
rule met

Confirm if protein stability index reported for the sequence ECLPENLGGYVKIDLATWNFQFLP [PTPN9] is 4 or above.
rule not met

# check: protein stability index of QPPSCQGEAAGSSLIGHLQTLSPD [DUSP5] is greater than or equal to 4
rule met

====

experiment-description: protein stability index of a GFP-peptide fusion (GPS, HEK-293T) (PSI 1-6); higher = more stable
condition-parameters: treatment: MLN4924 1 uM, 8 h; c terminus: a fixed tail appended
value-kind: protein stability index
Lab note: record just the number, no unit beside it.

// solved cases for protein stability index follow
protein stability index lookup needed for DAGGWVLIDRSGRHFGTILNYLRD [KCTD13] , thanks.
2.08

Sample DIRYLLGYVSQQGGQRSTPLIIAA [FEM1B] — what was its protein stability index?
2.62

Quick check: protein stability index of SLLCLLCSNSQEHGAHKHHPIEEA [TRIM43] ?
2.77

Param item = ACYAGAAPAPSQVKSKAKKTVDKH [CEBPB] ; retrieve measured protein stability index.
5.09

Fill in the blank: the reported protein stability index of SSTPDSTEGGNDDSDFRELHTARE [RTN2] is ____.
5.53

Would you kindly share the measured protein stability index for RYQHGIAVIGNFLYVVGGQSNYDT [KLHL13] ?
2.44

Consider the sequence shown here: RRRGSDPASGEVEASQLRRLNIKK [TMEM40] What is its recorded protein stability index?
5.02

Tell me the measured protein stability index of FWRDWEDYAHGFGNISGEFWLGNE [TNXB] , please.
2.46

Can you share its protein stability index? I mean this sequence: PAGFRVSTLGTLQPPPAPPKKIMP [PPFIA4]
4.07

Can you look up the measured protein stability index of IQDGTIHLYIYSIHSIPKGTEITI [KMT2E] for me?
3.24

Next:
Value lookup for protein stability index; key = VIASGSSVGHNNLIPLANTGIVNH [CARM1]
3.19

Which protein stability index value is on record for RRDCMWSGFSARERLERAVSDRLA [MYCL] ?
3.4

Sample HHSFPYDYSASEYRWHINFTTFFI [SCD] — what was its protein stability index?
2.86

For the sequence shown here, PSPTSPPPPELMDVSLVGGPADCS [DYRK1B] , give the reported protein stability index.
5.14
